# measured-on: Alkaline phosphatase, tissue-nonspecific isozyme (Homo sapiens)
# experiment: human TNAP enzyme inhibitors, primary screen, biochemical, luminescent, high phosphate acceptor level, uHTS (AID 1135);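 also: plate controls were DMSO wells for no effect and EDTA-quenched wells as full inhibition for full effect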
# experimental-conditions: purified TNAP, CDP-star luminescence, 1 M DEA; at 20 µM; stronger effect = higher value
The whole screen tested about 200,000 compounds, of which about 65 (0.03%) were called active. The entries come from a sample that favours actives as a whole.
Readings of inhibition for the listed compounds
endpoint-label: inhibition

INSERT INTO measurements (compound, endpoint_label, result) VALUES
  ('O=C(NNc1c2ccccc2nc2ccccc12)c1cc2ccccc2cc1O', 'inhibition', '26.1% (inactive)'),
  ('O=C(CCCCCNC(=O)c1ccccc1)N/N=C/c1ccccc1', 'inhibition', '-6.8% (inactive)'),
  ('COC(=O)c1c(NC(=O)c2c(Cl)cnn2C)sc(C)c1C', 'inhibition', '-0.7% (inactive)'),
  ('Cc1ccccc1C1=NC(C(F)(F)F)(C(F)(F)F)c2c(n(-c3ccc(F)cc3)c(=O)[nH]c2=O)N1', 'inhibition', '-3.5% (inactive)'),
  ('Cc1cccc(NC(=S)Nc2ccc(Cl)c(Cl)c2)c1', 'inhibition', '-5.2% (inactive)'),
  ('COc1ccc(C2CC(c3ccccc3)=NN2C(=O)c2ccc(Cl)c([N+](=O)[O-])c2)cc1 (stereo not given)', 'inhibition', '0.4% (inactive)'),
  ('Cc1ccc(C)c(-n2nnnc2SCC(=O)c2c(N)n(C)c(=O)n(C)c2=O)c1', 'inhibition', '-2.7% (inactive)'),
  ('S=C(Nc1ccc(Br)cc1Cl)NC1CCN(Cc2ccccc2)CC1', 'inhibition', '-5.2% (inactive)'),
  ('C=CCn1c(SCCOc2ccc(OC)cc2)nnc1C(NC(=O)c1ccc(OC)cc1)C(C)C (stereo not given)', 'inhibition', '-3.4% (inactive)'),
  ('NS(=O)(=O)c1ccc(CCNC(=O)c2ccc(Cl)cc2[N+](=O)[O-])cc1', 'inhibition', '5.9% (inactive)');

----------
# inhibition values compiled below
# measured-on: Alkaline phosphatase, tissue-nonspecific isozyme (Homo sapiens) (UniProt P05186)
# Sequence (P05186 whole entry, looked up): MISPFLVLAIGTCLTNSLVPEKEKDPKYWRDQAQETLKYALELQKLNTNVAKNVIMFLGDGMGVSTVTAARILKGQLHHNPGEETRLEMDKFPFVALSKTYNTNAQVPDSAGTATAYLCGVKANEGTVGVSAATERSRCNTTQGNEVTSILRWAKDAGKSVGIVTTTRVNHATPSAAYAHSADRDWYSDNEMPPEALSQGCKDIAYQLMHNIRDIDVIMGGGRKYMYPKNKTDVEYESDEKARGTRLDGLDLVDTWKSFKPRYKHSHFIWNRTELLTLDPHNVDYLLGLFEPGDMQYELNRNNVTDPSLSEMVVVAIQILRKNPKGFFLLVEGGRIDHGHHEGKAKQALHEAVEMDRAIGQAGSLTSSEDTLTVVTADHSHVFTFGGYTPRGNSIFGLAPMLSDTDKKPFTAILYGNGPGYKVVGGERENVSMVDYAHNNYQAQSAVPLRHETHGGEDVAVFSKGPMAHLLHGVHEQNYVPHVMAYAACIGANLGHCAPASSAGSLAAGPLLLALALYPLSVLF
# experiment: human TNAP enzyme inhibitors, primary screen, biochemical, luminescent, high phosphate acceptor level, uHTS (AID 1135);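 also: plate controls were DMSO wells for no effect and EDTA-quenched wells as full inhibition for full effect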
# experimental-conditions: purified TNAP, CDP-star luminescence, 1 M DEA; at 20 µM; stronger effect = higher value
Screen size: about 200,000 compounds; about 65 (0.03%) were called active. The sample as a whole holds a higher share of actives than the screen did.
endpoint-label: inhibition

INSERT INTO measurements (molecule, endpoint_label, result) VALUES
  ('O=C(NCc1cccs1)C(=O)NCC1OCCCN1S(=O)(=O)c1ccc(F)cc1 (stereo not given)', 'inhibition', '0.7% (inactive)'),
  ('O=C(NNC1CC(=O)N(c2cccc(Cl)c2)C1=O)c1cccnc1 (stereo not given)', 'inhibition', '-3.4% (inactive)'),
  ('CCOc1ccc(NC(=O)CSc2ncnc3c2sc2ccccc23)cc1', 'inhibition', '-1.9% (inactive)'),
  ('Cc1c(NC(=S)Nc2ccccc2)c(=O)n(-c2ccccc2)n1C', 'inhibition', '4.8% (inactive)'),
  ('COc1cc(/C=C/C(=O)O)cc(S(=O)(=O)Nc2ccccc2SC)c1OC', 'inhibition', '6.4% (inactive)'),
  ('Cc1ccc(OCC(=O)NC(C)c2ccccc2)c([N+](=O)[O-])n1 (stereo not given)', 'inhibition', '-1.6% (inactive)'),
  ('Cc1ccc(C(=O)COC(=O)CCCC(=O)NC2CCCCC2)cc1[N+](=O)[O-]', 'inhibition', '-4.3% (inactive)'),
  ('COc1ccc(NS(=O)(=O)c2cc(NC(=O)C3CCCCC3)ccc2N2CCOCC2)cc1', 'inhibition', '0.1% (inactive)'),
  ('COc1ccc(Cl)cc1NC(=O)[C@@H]1CCCN1C(=O)c1cccs1', 'inhibition', '1% (inactive)'),
  ('O=C1OC(OC(=O)c2ccccc2Br)C(N2CCOCC2)=C1Cl (stereo not given)', 'inhibition', '4.1% (inactive)');
